molecular target: HLA-B*07:02; test: IEDB peptide-MHC binding, purified MHC/direct/fluorescence; filed as Kd, often an IC50 or EC50 that approximates it; bounds were set here for any values at or beyond the usual limits of such assays; details: source organism: Yersinia pestis
quantity_measured: Kd

Please report the recorded Kd for WLWVSSSDM .
≥ 5 µM

---

target: HLA-A*69:01; test: IEDB peptide-MHC binding, purified MHC/direct/fluorescence; filed as Kd, often an IC50 or EC50 that approximates it; bounds were set here for any values at or beyond the usual limits of such assays; conditions: source organism: Vibrio vulnificus
quantity_measured: Kd

# input sequence: GLKELGDWV ; wanted: its Kd
≥ 5 µM

---

biological target: HLA-B*44:02; assay: IEDB peptide-MHC binding, purified MHC/direct/fluorescence; filed as Kd, often an IC50 or EC50 that approximates it; bounds were set here for any values at or beyond the usual limits of such assays; conditions: source organism: Influenza A virus (A/chicken/Hubei/wk/1997(H5N1))
quantity_measured: Kd

What Kd value was documented for this sequence, NPALRMKWM ?
≥ 20 µM

---

molecular target: HLA-B*58:01; experiment: IEDB peptide-MHC binding, purified MHC/direct/fluorescence; filed as Kd, often an IC50 or EC50 that approximates it; bounds were set here for any values at or beyond the usual limits of such assays; conditions: source organism: Yersinia pestis Nepal516
quantity_measured: Kd

Answer for every listed entry: what is its Kd? The entries follow.
1. WLWVSSSDM
2. LSEEIGLDL

1: ≥ 20 µM; 2: ≥ 20 µM

---

target: HLA-B*48:01; test: IEDB peptide-MHC binding, purified MHC/competitive/fluorescence; filed as Kd, often an IC50 or EC50 that approximates it; bounds were set here for any values at or beyond the usual limits of such assays; conditions: source organism: Giardia lamblia ATCC 50803
quantity_measured: pKd
Numbers only, as −log10 of the molar value.

Name the reported pKd value associated with the sequence VQHAPQVSL
6.86

---

target: HLA-B*35:01; experiment: IEDB peptide-MHC binding, purified MHC/competitive/radioactivity; filed as Kd, often an IC50 or EC50 that approximates it; bounds were set here for any values at or beyond the usual limits of such assays; conditions: source organism: Vaccinia virus WR
quantity_measured: pKd
Answers are plain numbers, as −log10 of the molar value.

>  <biosequence>
FPDIPVNNNI

>  <quantity_measured>
pKd

>  <meas_value>
6.35

$$$$

Pending sequence:
Any idea what pKd came out for DPVYISQFSY on HLA-B*35:01?
6.03

---

target: HLA-A*29:02; assay: IEDB peptide-MHC binding, purified MHC/competitive/radioactivity; filed as Kd, often an IC50 or EC50 that approximates it; bounds were set here for any values at or beyond the usual limits of such assays; conditions: source organism: Mammarenavirus tacaribeense
quantity_measured: Kd (nM)
One number for each entry, in nM.

Item LYGLITEQF has what recorded Kd?
2070

---

target: HLA-A*24:03; assay: IEDB peptide-MHC binding, purified MHC/competitive/fluorescence; filed as Kd, often an IC50 or EC50 that approximates it; bounds were set here for any values at or beyond the usual limits of such assays; conditions: source organism: Plasmodium yoelii yoelii
pKd: −log10 of the molar value.
quantity_measured: pKd

Suppose we examine the sequence KPPRGVLLY ; what pKd value has been reported?
≤ 4.70
